From: paper PMC12439581

tested-system: biotinylated α-elapitoxin-Dpp2d from Dendroaspis polylepis (Dendroaspis polylepis (black mamba), UniProt C0HJD7)
Sequence (C0HJD7 whole entry): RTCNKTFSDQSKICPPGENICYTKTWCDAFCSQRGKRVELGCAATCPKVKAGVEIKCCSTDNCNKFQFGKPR
assay-summary: BLI; […]; association at pH 7.4, dissociation at pH 7.4; 1:1 global fit, […]
measurement-setup: both partners purified
measurement-kind: Kd (nM)
State the answer as a number, implicitly in nM.

Use the examples below as a reference point.
binder	output-unit	Kd
C05 Fab, parental mAb 368_01_C05, with the N-glycosylation site of CDR-L3 removed (C05-NS) (Fab, V domains shown) VH: QVQLVQSGAEVKKPGSSVKVSCKASGGTFSSYAISWVRQAPGQGLEWMGGIIPIFGTANYAQKFQGRVTITADESTSTAYMELRSLRSDDTAVYYCARDNLGYCSGGSCYSDYYYYYMDVWGQGTLVTVSS VL: NFMLTQPHSVSESPGKTVTISCTRSSGSIASTYVHWYQQRPGSAPTTVIYEDNQRPSGVPDRFSGSIDSSSNSASLTISGLKTEDEADYYCQSYDSSSGSVVFGGGTKLTVL	nM	4.6
B11 Fab (Fab, V domains shown) VH: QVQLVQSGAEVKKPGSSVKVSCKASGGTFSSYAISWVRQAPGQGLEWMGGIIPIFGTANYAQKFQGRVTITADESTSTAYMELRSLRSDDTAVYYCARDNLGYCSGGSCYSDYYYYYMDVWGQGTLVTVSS VL: SYELTQPPSVSVAPGQTATITCGGHNIGSNIVHWYHQKPGQAPELVISHNTNRPSGIPERFSGSNSGSTATLTISRVEAVDEADYYCQVWDSSSEHVVFGGGTKVTVL	nM	1.4
E01 Fab (Fab, V domains shown) VH: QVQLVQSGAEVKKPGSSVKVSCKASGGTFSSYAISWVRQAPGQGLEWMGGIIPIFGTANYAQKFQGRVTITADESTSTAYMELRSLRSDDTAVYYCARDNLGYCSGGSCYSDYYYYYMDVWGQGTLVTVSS VL: NFMLTQPRSVSESPGKTVTISCTRSSGSIGSDYVHWYQQRPGSSPTTVIYEDNRRPSGVPDRFSGSIASSANSASLTISGLRPEDEADYYCQSYDSTTNHVVFGGGTKVTVL	nM	1.3

Read the next record carefully.
Lookup: Using the record for D11 Fab (Fab, V domains shown) VH: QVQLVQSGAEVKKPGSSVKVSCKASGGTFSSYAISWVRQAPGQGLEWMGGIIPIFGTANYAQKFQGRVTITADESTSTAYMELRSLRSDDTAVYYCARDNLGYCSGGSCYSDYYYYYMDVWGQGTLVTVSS VL: NFMLTQPRSVSESPGKTVTISCTRSSGSIGSDYVHWYQQRPGSSPTTVIYEDNQRPSGVPDRFSGSIDSSSNSASLTISGLKTEDEADYYCQSYDRSNHEVVFGGGTKLTVL , report its Kd.
Found: 1.4
